I'd appreciate it if you could supply EC50 values for the items below.
Target: Prostaglandin E2 receptor EP2 subtype (Homo sapiens)
Sequence (P43116 whole entry): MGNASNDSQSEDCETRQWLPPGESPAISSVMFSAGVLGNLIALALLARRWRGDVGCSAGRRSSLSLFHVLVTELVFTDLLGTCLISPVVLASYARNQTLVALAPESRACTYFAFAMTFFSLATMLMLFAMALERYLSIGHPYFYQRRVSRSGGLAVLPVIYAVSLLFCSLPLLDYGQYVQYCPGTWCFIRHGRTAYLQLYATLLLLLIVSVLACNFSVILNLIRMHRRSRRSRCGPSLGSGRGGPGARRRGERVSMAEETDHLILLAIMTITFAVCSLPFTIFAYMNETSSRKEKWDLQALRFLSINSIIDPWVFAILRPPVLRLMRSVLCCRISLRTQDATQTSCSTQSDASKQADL
Assay: FLIPR Assay: Cells were seeded at a density of 5×10^4 cells per well in Biocoat® Poly-D-lysine-coated black-wall, clear-bottom 96-well plates (Becton-Dickinson) and allowed to attach overnight in an incubator at 37° C. Cells were then washed two times with HBSS-HEPES buffer (Hanks Balanced Salt Solution without bicarbonate and phenol red, 20 mM HEPES, pH 7.4) using a Denley Cellwash plate washer (Labsystems). After 45 minutes of dye-loading in the dark, using the calcium-sensitive dye Fluo-4 AM at a final concentration of […], plates were washed four times with HBSS-HEPES buffer to remove excess dye leaving […] in each well. Plates were re-equilibrated to 37° C. for a few minutes.Cells were excited with an Argon laser at 488 nm, and emission was measured through a 510-570 nm bandwidth emission filter (FLIPR™, Molecular Devices, Sunnyvale, Calif.). Drug solution was added in a 50 μl volume to each well to give the desired final concentration. The peak increase in fluorescence intensity was recorded for each well. On each plate, four wells each served as negative (HBSS-HEPES buffer) and positive controls (standard agonists: BW245C (hDP); PGE2 (hEP1; hEP2/Gqs5; hEP3A/Gqi5; hEP4/Gqs5); PGF2a (hFP); carbacyclin (hIP); U-46619 (hTP), depending on receptor). The peak fluorescence change in each drug-containing well was then expressed relative to the controls.
Kindly report the value followed by its unit.

Problem: Param item = O=C(O)c1ccc(CCc2cccc3c2N(Cc2cc(F)cc(F)c2)CC3)cc1 ; retrieve measured EC50.
Result: 0.012 µM

Problem: Param item = O=C(O)c1ccc(CCc2cccc3c2N(Cc2ccc(F)cc2)CC3)cc1 ; retrieve measured EC50.
Result: 0.029 µM

Problem: Param item = O=C(O)c1ccc(CCc2cccc3c2N(Cc2cc(C(F)(F)F)cc(C(F)(F)F)c2)CC3)cc1 ; retrieve measured EC50.
Result: 0.011 µM

Problem: Param item = COc1cc(OC)cc(C(=O)N2CCc3cccc(CCc4ccc(C(=O)O)cc4)c32)c1 ; retrieve measured EC50.
Result: 0.183 µM

Problem: Param item = O=C(O)c1ccc(CCc2cccc3c2N(Cc2cccc(F)c2)CC3)cc1 ; retrieve measured EC50.
Result: 0.035 µM

Problem: Param item = O=C(O)c1ccc(CCc2cccc3c2N(Cc2cccc(C(F)(F)F)c2)CC3)cc1 ; retrieve measured EC50.
Result: 0.015 µM

This collection of values is drawn from ChEMBL document CHEMBL5725219.
